system: NCI-H322M; assay: Growth inhibition of human NCI-H322M cells after 48 hrs by sulforhodamine B assay; format: functional
value_kind: LC50 (µM)
Respond with the bare value in µM.

[[record]]
compound_structure_string = "Nc1cc(N)c2nc(-c3ccccc3)c(NCc3ccc(F)cc3)nc2c1"
value_reported = 40.7

[[record]]
compound_structure_string = "Nc1cc(N)c2nc(-c3ccccc3)c(Sc3ccc(F)cc3)nc2c1"
value_reported = 70.8


Now let's try a different one.
Task: Entry under review: COc1ccc(CNc2nc3cc(N)cc(N)c3nc2-c2ccccc2)cc1OC . Reported LC50?
Result: 100

---

Each entry below carries its reported CC50.
test system: MCF7; test: Growth inhibition of human MCF7 cells after 48 hrs by sulforhodamine B assay; format: functional; conditions: MCF7, 48 h, read-out: pLC50 (the source's name) (converted)

Example results:
[[record]]
compound_structure_string = "COc1ccc(Oc2nc3cc(N)cc(N)c3nc2-c2ccccc2)cc1"
system_under_test = "MCF7"
value_kind = "CC50"
value_reported = "> 100 µM"

[[record]]
compound_structure_string = "COc1ccc(Sc2nc3cc(N)cc(N)c3nc2-c2ccccc2)cc1"
system_under_test = "MCF7"
value_kind = "CC50"
value_reported = "> 100 µM"

[[record]]
compound_structure_string = "COc1cc(CNc2nc3cc(N)cc(N)c3nc2-c2ccccc2)cc(OC)c1"
system_under_test = "MCF7"
value_kind = "CC50"
value_reported = "> 100 µM"

[[record]]
compound_structure_string = "Nc1cc(N)c2nc(-c3ccccc3)c(Sc3ccc(F)cc3)nc2c1"
system_under_test = "MCF7"
value_kind = "CC50"
value_reported = "> 100 µM"

[[record]]
compound_structure_string = "COc1ccc(CNc2nc3cc(N)cc(N)c3nc2-c2ccccc2)cc1"
system_under_test = "MCF7"
value_kind = "CC50"
value_reported = "53.7 µM"

[[record]]
compound_structure_string = "COc1cc(CNc2nc3cc(N)cc(N)c3nc2-c2ccccc2)cc(OC)c1OC"
system_under_test = "MCF7"
value_kind = "CC50"
value_reported = "> 50.1 µM"


Task: Param readout = CC50; param system = MCF7; param query = Nc1cc(N)c2nc(-c3ccccc3)c(NCc3ccc(F)cc3)nc2c1 ; response: value
Result: > 100 µM

Task: Param readout = CC50; param system = MCF7; param query = Nc1cc(N)c2nc(-c3ccccc3)c(Oc3ccc(F)cc3)nc2c1 ; response: value
Result: > 100 µM

Task: Param readout = CC50; param system = MCF7; param query = COc1ccc(CNc2nc3cc(N)cc(N)c3nc2-c2ccccc2)cc1OC ; response: value
Result: > 100 µM

Task: Param readout = CC50; param system = MCF7; param query = Nc1cc(N)c2nc(-c3ccccc3)c(Oc3ccc(Cl)c(Cl)c3)nc2c1 ; response: value
Result: > 100 µM

Task: Param readout = CC50; param system = MCF7; param query = Nc1cc(N)c2nc(-c3ccccc3)c(NCc3ccc(Cl)c(Cl)c3)nc2c1 ; response: value
Result: > 100 µM

Task: Param readout = CC50; param system = MCF7; param query = COc1cc(OC)cc(Oc2nc3cc(N)cc(N)c3nc2-c2ccccc2)c1 ; response: value
Result: 14.5 µM

Task: Param readout = CC50; param system = MCF7; param query = Nc1cc(N)c2nc(-c3ccccc3)c(Sc3ccc(Cl)c(Cl)c3)nc2c1 ; response: value
Result: > 100 µM

---

system: UO-31; test: Growth inhibition of human UO31 cells after 48 hrs by sulforhodamine B assay; type: functional; settings: UO-31, 48 h, read-out: pLC50 (the source's name) (converted)
value_kind: CC50

Example results:
[[record]]
compound_structure_string = "Nc1cc(N)c2nc(-c3ccccc3)c(Oc3ccc(F)cc3)nc2c1"
system_under_test = "UO-31"
value_kind = "CC50"
value_reported = "> 100 µM"

[[record]]
compound_structure_string = "COc1cc(OC)cc(Oc2nc3cc(N)cc(N)c3nc2-c2ccccc2)c1"
system_under_test = "UO-31"
value_kind = "CC50"
value_reported = "72.4 µM"


Now let's try a different one.
Task: Entry under review: COc1cc(CNc2nc3cc(N)cc(N)c3nc2-c2ccccc2)cc(OC)c1 . Reported CC50?
Result: > 100 µM

---

test system: SF-295; assay: Growth inhibition of human SF295 cells after 48 hrs by sulforhodamine B assay; assay type: functional; details: SF-295, 48 h
Each entry below carries its reported LC50 (50% net cell kill).
Respond with the bare value in µM.

[[record]]
compound_structure_string = "Nc1cc(N)c2nc(-c3ccccc3)c(Sc3ccc(F)cc3)nc2c1"
value_kind = "LC50 (50% net cell kill)"
unit_of_measure = "µM"
value_reported = 64.6

[[record]]
compound_structure_string = "Nc1cc(N)c2nc(-c3ccccc3)c(NCc3ccc(Cl)c(Cl)c3)nc2c1"
value_kind = "LC50 (50% net cell kill)"
unit_of_measure = "µM"
value_reported = 89.1

[[record]]
compound_structure_string = "Nc1cc(N)c2nc(-c3ccccc3)c(Oc3ccc(Cl)c(Cl)c3)nc2c1"
value_kind = "LC50 (50% net cell kill)"
unit_of_measure = "µM"
value_reported = 69.2


Task: Entry under review: COc1cc(CNc2nc3cc(N)cc(N)c3nc2-c2ccccc2)cc(OC)c1 . Reported LC50 (50% net cell kill)?
Result: 87.1

Task: Entry under review: Nc1cc(N)c2nc(-c3ccccc3)c(NCc3ccc(F)cc3)nc2c1 . Reported LC50 (50% net cell kill)?
Result: 64.6

Task: Entry under review: COc1cc(CNc2nc3cc(N)cc(N)c3nc2-c2ccccc2)cc(OC)c1OC . Reported LC50 (50% net cell kill)?
Result: 37.2

Task: Entry under review: Nc1cc(N)c2nc(-c3ccccc3)c(Oc3ccc(F)cc3)nc2c1 . Reported LC50 (50% net cell kill)?
Result: 72.4

Task: Entry under review: COc1ccc(CNc2nc3cc(N)cc(N)c3nc2-c2ccccc2)cc1OC . Reported LC50 (50% net cell kill)?
Result: 58.9

Task: Entry under review: COc1ccc(CNc2nc3cc(N)cc(N)c3nc2-c2ccccc2)cc1 . Reported LC50 (50% net cell kill)?
Result: 58.9

---

system: BT-549; assay: Growth inhibition of human BT549 cells after 48 hrs by sulforhodamine B assay; assay type: functional; conditions: BT-549, 48 h, read-out: pLC50 (the source's name) (converted)
Each entry below carries its reported log10(CC50).
Answers are given as log10 of CC50 in µM.

Example results:
[[record]]
compound_structure_string = "Nc1cc(N)c2nc(-c3ccccc3)c(Oc3ccc(F)cc3)nc2c1"
value_reported = 1.91

[[record]]
compound_structure_string = "COc1ccc(CNc2nc3cc(N)cc(N)c3nc2-c2ccccc2)cc1OC"
value_reported = 1.90

[[record]]
compound_structure_string = "COc1cc(CNc2nc3cc(N)cc(N)c3nc2-c2ccccc2)cc(OC)c1OC"
value_reported = 1.44


Task: Entry under review: COc1cc(OC)cc(Oc2nc3cc(N)cc(N)c3nc2-c2ccccc2)c1 . Reported log10(CC50)?
Result: 1.58

Task: Entry under review: Nc1cc(N)c2nc(-c3ccccc3)c(NCc3ccc(F)cc3)nc2c1 . Reported log10(CC50)?
Result: 0.80

Task: Entry under review: Nc1cc(N)c2nc(-c3ccccc3)c(Sc3ccc(F)cc3)nc2c1 . Reported log10(CC50)?
Result: 1.95

---

tested on: OVCAR-8; experiment: Growth inhibition of human OVCAR8 cells after 48 hrs by sulforhodamine B assay; format: functional; details: OVCAR-8, 48 h
value_kind: GI50 (µM)
Respond with the bare value in µM.

[[record]]
compound_structure_string = "Nc1cc(N)c2nc(-c3ccccc3)c(Oc3ccc(F)cc3)nc2c1"
value_reported = 22.4

[[record]]
compound_structure_string = "COc1cc(CNc2nc3cc(N)cc(N)c3nc2-c2ccccc2)cc(OC)c1"
value_reported = 2.82


Task: Entry under review: Nc1cc(N)c2nc(-c3ccccc3)c(NCc3ccc(Cl)c(Cl)c3)nc2c1 . Reported GI50?
Result: 3.39

Task: Entry under review: COc1ccc(CNc2nc3cc(N)cc(N)c3nc2-c2ccccc2)cc1OC . Reported GI50?
Result: 6.76

Task: Entry under review: COc1cc(OC)cc(Oc2nc3cc(N)cc(N)c3nc2-c2ccccc2)c1 . Reported GI50?
Result: 2.88

Task: Entry under review: COc1cc(CNc2nc3cc(N)cc(N)c3nc2-c2ccccc2)cc(OC)c1OC . Reported GI50?
Result: 6.92

---

test system: BT-549; experiment: Growth inhibition of human BT549 cells after 48 hrs by sulforhodamine B assay; type: functional; conditions: BT-549, 48 h
Each entry below carries its reported log10 GI50.
Answers are given as log10 of GI50 in µM.

[[record]]
compound_structure_string = "COc1ccc(Oc2nc3cc(N)cc(N)c3nc2-c2ccccc2)cc1"
value_kind = "log10 GI50"
value_reported = 1.51

[[record]]
compound_structure_string = "COc1cc(CNc2nc3cc(N)cc(N)c3nc2-c2ccccc2)cc(OC)c1OC"
value_kind = "log10 GI50"
value_reported = 0.58

[[record]]
compound_structure_string = "COc1ccc(CNc2nc3cc(N)cc(N)c3nc2-c2ccccc2)cc1"
value_kind = "log10 GI50"
value_reported = 0.81

[[record]]
compound_structure_string = "Nc1cc(N)c2nc(-c3ccccc3)c(NCc3ccc(F)cc3)nc2c1"
value_kind = "log10 GI50"
value_reported = 0.23


Now let's try a different one.
Task: Entry under review: COc1cc(CNc2nc3cc(N)cc(N)c3nc2-c2ccccc2)cc(OC)c1 . Reported log10 GI50?
Result: 0.99
